Consider the following compounds; for each one, report its Excitation Peak.
assay.text: Absorption and fluorescence spectroscopy / fluorescence quantum yield
Type: physicochemical
applied.conditions: acetonitrile
# number only, unit nm dropped from output

Prompt line: Consider the compound O=C(Cc1cccc(F)c1)Nc1ccc(N2CCC(NCc3ccc4ncccc4c3)CC2)cc1 and give its measured Excitation Peak.
Response line: 320

Prompt line: Consider the compound Cc1c(-c2ccc(F)cc2)[nH]c2ccc(CNC(=O)c3cc(=O)[nH]c(=O)[nH]3)cc12 and give its measured Excitation Peak.
Response line: 310

Prompt line: Consider the compound CC1Sc2ccc(C(=O)NNC(=O)c3cc(-c4ccco4)nc4ccccc34)cc2NC1=O (centres unmarked) and give its measured Excitation Peak.
Response line: 355

Prompt line: Consider the compound Cc1ccc(NC(=O)CSc2nnc3ccc(C(=O)Nc4cccc(F)c4)cn23)c(C)c1 and give its measured Excitation Peak.
Response line: 275

Prompt line: Consider the compound O=C(Nc1nc2ccccc2[nH]1)c1ccc(CNS(=O)(=O)c2ccc(F)c(F)c2F)cc1 and give its measured Excitation Peak.
Response line: 310

Prompt line: Consider the compound O=C(NC1CCCc2ccccc21)c1ccc(CN2CCN(CC=Cc3ccccc3)CC2)[nH]c1=O (centres unmarked) and give its measured Excitation Peak.
Response line: 335

Prompt line: Consider the compound O=C(Nc1cccc(-c2cc3ccccc3[nH]2)c1)C1CCN(C(=O)C2CC23CCC3)CC1 (centres unmarked) and give its measured Excitation Peak.
Response line: 315

---

Consider the following compounds; for each one, report its Emission Peak.
assay.text: Absorption and fluorescence spectroscopy / fluorescence quantum yield
Type: physicochemical
applied.conditions: acetonitrile
# number only, unit nm dropped from output

Prompt line: Consider the compound O=C(Nc1nc2ccccc2[nH]1)c1ccc(CNS(=O)(=O)c2ccc(F)c(F)c2F)cc1 [Mol 11] and give its measured Emission Peak.
Response line: 405

Prompt line: Consider the compound O=C(Cc1cccc(F)c1)Nc1ccc(N2CCC(NCc3ccc4ncccc4c3)CC2)cc1 [Mol 36] and give its measured Emission Peak.
Response line: 425

Prompt line: Consider the compound Cc1c(-c2ccc(F)cc2)[nH]c2ccc(CNC(=O)c3cc(=O)[nH]c(=O)[nH]3)cc12 [Mol 16] and give its measured Emission Peak.
Response line: 385

Prompt line: Consider the compound O=C(Nc1cccc(-c2cc3ccccc3[nH]2)c1)C1CCN(C(=O)C2CC23CCC3)CC1 (centres unmarked) [Mol 4] and give its measured Emission Peak.
Response line: 380

Prompt line: Consider the compound Cc1ccc(NC(=O)CSc2nnc3ccc(C(=O)Nc4cccc(F)c4)cn23)c(C)c1 [Mol 35] and give its measured Emission Peak.
Response line: 460

Prompt line: Consider the compound CC1Sc2ccc(C(=O)NNC(=O)c3cc(-c4ccco4)nc4ccccc34)cc2NC1=O (centres unmarked) [Mol 22] and give its measured Emission Peak.
Response line: 455

Prompt line: Consider the compound O=C(NC1CCCc2ccccc21)c1ccc(CN2CCN(CC=Cc3ccccc3)CC2)[nH]c1=O (centres unmarked) [Mol 42] and give its measured Emission Peak.
Response line: 390

Prompt line: Consider the compound C[C@@H](Oc1ccc2[nH]c3ccccc3c(=O)c2c1)C(=O)NC(=O)NC12CC3CC(CC(C3)C1)C2 [Mol 17] and give its measured Emission Peak.
Response line: 500

---

assay.text: Absorption and fluorescence spectroscopy / fluorescence quantum yield
Format: physicochemical
applied.conditions: acetonitrile
readout.label: Quantum Yield

Prompt line: Consider the compound Cc1c(-c2ccc(F)cc2)[nH]c2ccc(CNC(=O)c3cc(=O)[nH]c(=O)[nH]3)cc12 and give its measured Quantum Yield.
Response line: 0.002

Prompt line: Consider the compound O=C(Nc1nc2ccccc2[nH]1)c1ccc(CNS(=O)(=O)c2ccc(F)c(F)c2F)cc1 and give its measured Quantum Yield.
Response line: 0.001

Prompt line: Consider the compound O=C(Nc1cccc(-c2cc3ccccc3[nH]2)c1)C1CCN(C(=O)C2CC23CCC3)CC1 (centres unmarked) and give its measured Quantum Yield.
Response line: 0.560

Prompt line: Consider the compound CC1Sc2ccc(C(=O)NNC(=O)c3cc(-c4ccco4)nc4ccccc34)cc2NC1=O (centres unmarked) and give its measured Quantum Yield.
Response line: 0.044

Prompt line: Consider the compound C[C@@H](Oc1ccc2[nH]c3ccccc3c(=O)c2c1)C(=O)NC(=O)NC12CC3CC(CC(C3)C1)C2 and give its measured Quantum Yield.
Response line: 0.984

Prompt line: Consider the compound O=C(Cc1cccc(F)c1)Nc1ccc(N2CCC(NCc3ccc4ncccc4c3)CC2)cc1 and give its measured Quantum Yield.
Response line: 0.017

Prompt line: Consider the compound Cc1ccc(NC(=O)CSc2nnc3ccc(C(=O)Nc4cccc(F)c4)cn23)c(C)c1 and give its measured Quantum Yield.
Response line: 0.001

Prompt line: Consider the compound O=C(NC1CCCc2ccccc21)c1ccc(CN2CCN(CC=Cc3ccccc3)CC2)[nH]c1=O (centres unmarked) and give its measured Quantum Yield.
Response line: 0.011

---

assayed.system: C3d (Homo sapiens)
Sequence (P01024 1002-1303 limits assumed): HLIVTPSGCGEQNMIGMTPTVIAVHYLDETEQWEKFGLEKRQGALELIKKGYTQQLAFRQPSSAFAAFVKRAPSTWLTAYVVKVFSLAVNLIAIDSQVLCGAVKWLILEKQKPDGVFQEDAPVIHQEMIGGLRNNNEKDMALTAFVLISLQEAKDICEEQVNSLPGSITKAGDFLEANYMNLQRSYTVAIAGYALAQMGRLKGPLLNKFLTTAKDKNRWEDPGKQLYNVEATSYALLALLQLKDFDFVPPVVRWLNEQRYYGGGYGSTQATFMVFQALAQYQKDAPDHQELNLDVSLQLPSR
Field: label. Allowed values: y (Kd < 100 µM) or n (Kd >= 100 µM).

Prompt line: # strict comparison: is reported Kd < 100 µM? input = C[C@@H](Oc1ccc2[nH]c3ccccc3c(=O)c2c1)C(=O)NC(=O)NC12CC3CC(CC(C3)C1)C2
Response line: n

Prompt line: # strict comparison: is reported Kd < 100 µM? input = O=C(Nc1cccc(-c2cc3ccccc3[nH]2)c1)C1CCN(C(=O)C2CC23CCC3)CC1 (centres unmarked)
Response line: y

Prompt line: # strict comparison: is reported Kd < 100 µM? input = O=C(NC1CCCc2ccccc21)c1ccc(CN2CCN(CC=Cc3ccccc3)CC2)[nH]c1=O (centres unmarked)
Response line: y

Prompt line: # strict comparison: is reported Kd < 100 µM? input = O=C(Cc1cccc(F)c1)Nc1ccc(N2CCC(NCc3ccc4ncccc4c3)CC2)cc1
Response line: n

Prompt line: # strict comparison: is reported Kd < 100 µM? input = Cc1c(-c2ccc(F)cc2)[nH]c2ccc(CNC(=O)c3cc(=O)[nH]c(=O)[nH]3)cc12
Response line: y

Prompt line: # strict comparison: is reported Kd < 100 µM? input = Cc1ccc(NC(=O)CSc2nnc3ccc(C(=O)Nc4cccc(F)c4)cn23)c(C)c1
Response line: n

Prompt line: # strict comparison: is reported Kd < 100 µM? input = CC1Sc2ccc(C(=O)NNC(=O)c3cc(-c4ccco4)nc4ccccc34)cc2NC1=O (centres unmarked)
Response line: n

Prompt line: # strict comparison: is reported Kd < 100 µM? input = O=C(Nc1nc2ccccc2[nH]1)c1ccc(CNS(=O)(=O)c2ccc(F)c(F)c2F)cc1
Response line: y
